substrate: N[C@@H](Cc1c[nH]c2ccccc12)C(=O)O; test: HPLC end-point assay, Michaelis-Menten fit; format: biochemical, Micromonospora olivasterospora; details: 2 mM DMAPP, 50 mM Tris pH 8.0, 37 °C
result type: kcat (s⁻¹)
Field format: number, assumed s⁻¹, no unit text.

[ask] Look at this protein and give its reported kcat. 6DMATSmo (Micromonospora olivasterospora; Y277H) (protein) MAGLSVSDHLDGQLARLCEVAGADPVEPRNLLAGLLGPVGPRPLYEPPAWPSGVSDDHTPVEFSIAFNEAEPPTLRILGETLGSPPGPLANLSATRGFLDAQARRAGLSTSRLDSVRDLFATDDPQGDFAMWCSLVFRSSRRPEFKVYLNPEVKGVERSPALVSEALHRLGLGASYRALLDHGVRPGELGRGDRLTFFAVDLHDGPQARVKLYLTHHEAEVWDVTRAASVVDGVDVAEIEEFCVVAGGGTRRFDGRPLVGSYTFTEGADRPVGYSIHVPIRSYVTDDQEARDRVAALLVRYGFDTDGLDRAIAAVTPRPLRDGVGLIAHVSLRLGAPRPGVTVYLSAEAYRVSPPRPRRMPAGRDVSPAPVGRTRP
[reply] 0.00108
